Where do these numbers come from? They come from ChEMBL document CHEMBL1136327.

Would you mind telling me the reported CC50 of each entry?
System: MT2
ASSAY_TEXT: Cytotoxic concentration required to reduce the viability of mock-infected MT-2 cells by 50%
Assay type: functional
CONDITION_PARAMETERS: Homo sapiens

Batch of 4 compounds: report CC50 for each.
1. Cc1cn([C@H]2C=C[C@@H](CO)O2)c(=O)[nH]c1=O [STAVUDINE]
2. Cc1cn([C@H]2C=C[C@@](C)(CO)O2)c(=O)[nH]c1=O
3. C=C[C@@]1(CO)C=C[C@H](n2cc(C)c(=O)[nH]c2=O)O1
4. C#C[C@@]1(CO)C=C[C@H](n2cc(C)c(=O)[nH]c2=O)O1 [CENSAVUDINE]

Result string:
1: 100 µM; 2: > 100 µM; 3: > 100 µM; 4: > 100 µM
